# Assayed target: HLA-DRB1*01:01 (Homo sapiens, UniProt P01903+P01911, A100R/D57E/F55L/F60I/F76Y/I96L/L162R/M171V/P40L/Q125E/R42F/V115G/Y59C)
# Construct: EBV transformed homozygous cell lines were used as sources of MHC molecules; endogenous in cells; host or cells: EBV transformed homozygous cell lines
# Experimental protocol: HLA class II peptide binding, inhibition of radiolabeled peptide binding to purified MHC
# Stated conditions: citrullinated 15-mer (X); purified MHC, inhibition of radiolabeled peptide binding; dash = IC50 >40,000 nM; read-out: DRB1*01:01 binding capacity, Cit peptide (IC50 nM)
Square brackets hold non-standard residues; d marks the D form. Peptide text beside a SMILES is read from it. Cit = NC(=O)NCCC[C@H](N)C(=O)O
Please use y for IC50 under 1000 nM and n for everything else, ties included.

{"Compound": "CC(C)C[C@H](NC(=O)[C@H](C)NC(=O)[C@H](CC(=O)O)NC(=O)[C@H](CC(N)=O)NC(=O)[C@H](CC(N)=O)NC(=O)[C@H](CCCNC(N)=O)NC(=O)[C@H](CC(N)=O)NC(=O)[C@H](C)NC(=O)[C@H](C)N)C(=O)N[C@@H](CCCNC(=N)N)C(=O)N[C@@H](CCC(N)=O)C(=O)N[C@@H](C)C(=O)N[C@@H](CCCCN)C(=O)N[C@@H](CCC(N)=O)C(=O)N[C@@H](CCC(=O)O)C(=O)O [AANXNNDALRQAKQE] (H-AAN[Cit]NNDALRQAKQE-OH; N-terminus and C-terminus assumed)", "Class assignment": "n"}
{"Compound": "CC(C)C[C@H](NC(=O)[C@H](CC(=O)O)NC(=O)[C@H](CC(C)C)NC(=O)[C@H](CCCNC(=N)N)NC(=O)[C@H](C)NC(=O)[C@H](CC(C)C)NC(=O)[C@H](CO)NC(=O)[C@H](C)NC(=O)[C@H](CC(N)=O)NC(=O)[C@H](CC(=O)O)NC(=O)[C@@H](NC(=O)[C@H](CC(=O)O)NC(=O)[C@H](CCC(N)=O)NC(=O)[C@H](CCCNC(N)=O)NC(=O)[C@@H](N)Cc1ccccc1)C(C)C)C(=O)O [FXQDVDNASLARLDL] (H-F[Cit]QDVDNASLARLDL-OH)", "Class assignment": "n"}
{"Compound": "CC(C)C[C@H](NC(=O)[C@H](CCC(N)=O)NC(=O)[C@H](CC(=O)O)NC(=O)[C@@H](NC(=O)[C@H](CCC(N)=O)NC(=O)[C@H](CCCNC(=N)N)NC(=O)[C@H](CCCNC(=N)N)NC(=O)[C@H](CC(C)C)NC(=O)[C@@H](N)CCC(=O)O)C(C)C)C(=O)N[C@H](C(=O)N[C@@H](CC(N)=O)C(=O)N[C@@H](CC(=O)O)C(=O)N[C@@H](CCCCN)C(=O)N[C@@H](C)C(=O)N[C@@H](CCCNC(N)=O)C(=O)O)[C@@H](C)O [ELRRQVDQLTNDKAX] (H-ELRRQVDQLTNDKA[Cit]-OH)", "Class assignment": "n"}
{"Compound": "CSCC[C@H](NC(=O)[C@H](CCCNC(=N)N)NC(=O)[C@H](CCCNC(=N)N)NC(=O)[C@H](Cc1ccc(O)cc1)NC(=O)[C@H](CO)NC(=O)[C@H](CO)NC(=O)[C@H](CO)NC(=O)[C@H](CO)NC(=O)[C@@H](NC(=O)[C@H](CO)NC(=O)[C@H](CCCNC(N)=O)NC(=O)[C@@H](NC(=O)[C@H](CO)NC(=O)[C@@H](N)CCSC)[C@@H](C)O)C(C)C)C(=O)N[C@@H](Cc1ccccc1)C(=O)O [MSTXSVSSSSYRRMF] (H-MST[Cit]SVSSSSYRRMF-OH)", "Class assignment": "y"}
{"Compound": "CC(C)C[C@H](NC(=O)[C@H](C)NC(=O)[C@H](C)NC(=O)[C@@H](NC(=O)[C@H](CC(C)C)NC(=O)[C@H](CC(=O)O)NC(=O)[C@@H]1CCCN1C(=O)[C@H](CCCCN)NC(=O)[C@@H](N)CO)[C@@H](C)O)C(=O)N[C@@H](CCCNC(N)=O)C(=O)N[C@@H](CC(=O)O)C(=O)N[C@H](C(=O)N[C@@H](CCCNC(=N)N)C(=O)N[C@@H](CCC(N)=O)C(=O)N[C@@H](CCC(N)=O)C(=O)O)C(C)C [SKPDLTAALXDVRQQ] (H-SKPDLTAAL[Cit]DVRQQ-OH)", "Class assignment": "n"}
{"Compound": "CC(C)C[C@H](NC(=O)[C@H](CCCNC(N)=O)NC(=O)[C@@H](NC(=O)[C@H](C)NC(=O)[C@H](CO)NC(=O)[C@H](CO)NC(=O)[C@H](CCCNC(=N)N)NC(=O)[C@@H](NC(=O)[C@H](C)NC(=O)[C@H](Cc1ccc(O)cc1)NC(=O)[C@@H](NC(=O)CNC(=O)CNC(=O)[C@@H]1CCCN1C(=O)[C@@H](N)CO)C(C)C)[C@@H](C)O)C(C)C)C(=O)O [SPGGVYATRSSAVXL] (H-SPGGVYATRSSAV[Cit]L-OH)", "Class assignment": "y"}
{"Compound": "CC[C@H](C)[C@H](NC(=O)[C@H](CCCCN)NC(=O)[C@H](CC(N)=O)NC(=O)[C@H](CCC(N)=O)NC(=O)[C@H](CCC(N)=O)NC(=O)[C@H](CCC(=O)O)NC(=O)[C@H](CC(C)C)NC(=O)[C@H](Cc1ccccc1)NC(=O)[C@H](CCCNC(N)=O)NC(=O)[C@@H](N)C(C)C)C(=O)N[C@@H](CC(C)C)C(=O)N[C@@H](CC(C)C)C(=O)N[C@@H](C)C(=O)N[C@@H](CCC(=O)O)C(=O)N[C@@H](CC(C)C)C(=O)O", "Class assignment": "y"}
{"Compound": "CC(C)[C@H](NC(=O)[C@H](Cc1ccc(O)cc1)NC(=O)[C@H](CO)NC(=O)[C@H](CCCNC(=N)N)NC(=O)[C@H](CO)NC(=O)[C@H](CO)NC(=O)[C@H](CO)NC(=O)[C@@H]1CCCN1C(=O)[C@H](CCCNC(N)=O)NC(=O)[C@H](CO)NC(=O)[C@H](C)N)C(=O)N[C@H](C(=O)N[C@H](C(=O)N[C@@H](CO)C(=O)N[C@H](C(=O)O)[C@@H](C)O)[C@@H](C)O)[C@@H](C)O [ASXPSSSRSYVTTST] (H-AS[Cit]PSSSRSYVTTST-OH)", "Class assignment": "n"}
{"Compound": "CC(C)C[C@H](NC(=O)[C@H](C)NC(=O)[C@H](CO)NC(=O)CNC(=O)[C@H](CC(C)C)NC(=O)[C@H](CO)NC(=O)[C@H](Cc1ccc(O)cc1)NC(=O)[C@@H](NC(=O)[C@@H](N)CCCNC(=N)N)[C@@H](C)O)C(=O)N[C@@H](CCCNC(=N)N)C(=O)N1CCC[C@H]1C(=O)N[C@@H](CO)C(=O)N[C@H](C(=O)N[C@@H](CO)C(=O)N[C@@H](CCCNC(N)=O)C(=O)O)[C@@H](C)O [RTYSLGSALRPSTSX] (H-RTYSLGSALRPSTS[Cit]-OH)", "Class assignment": "y"}
